B1: Zinc finger homeobox protein 4, residues 2183 to 2238; numbered along this chain, Q86UP3 (parent)
chain: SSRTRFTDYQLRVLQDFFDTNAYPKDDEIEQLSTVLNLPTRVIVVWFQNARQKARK

variants of: B1; test: abundance fitness (aPCA) (normalised: wild type 0, dead -1); higher = more abundant; growth selection in yeast, the domain comes from the species named; details: Homo sapiens

variantKey: Y23W
abundance fitness: -0.061
--
variantKey: Q10I
abundance fitness: -0.391
--
variantKey: E28A
abundance fitness: -0.036
--
variantKey: D26C
abundance fitness: -0.255
--
variantKey: T34I
abundance fitness: -0.256
--
variantKey: E30F
abundance fitness: -0.132
--
variantKey: Q10S
abundance fitness: -0.335
--
variantKey: Y23N
abundance fitness: -0.369
--
variantKey: L32C
abundance fitness: -0.548
--
variantKey: F17A
abundance fitness: -0.006
--
variantKey: P24Q
abundance fitness: -0.703
--
variantKey: T4A
abundance fitness: -0.698
--
variantKey: Q15A
abundance fitness: -0.05
--
variantKey: D8W
abundance fitness: -0.58
--
variantKey: L14N
abundance fitness: -1.15
--
variantKey: Q15P
abundance fitness: -0.708
--
variantKey: F6R
abundance fitness: -0.726
--
variantKey: D16L
abundance fitness: -0.602
--
variantKey: T20M
abundance fitness: -0.101
--
variantKey: K25A
abundance fitness: -0.203
--
variantKey: N21M
abundance fitness: -0.414
--
variantKey: S33Y
abundance fitness: -0.749
--
variantKey: E28V
abundance fitness: -0.34
--
variantKey: T20W
abundance fitness: -0.158
--
variantKey: Y9G
abundance fitness: 0.062
--
variantKey: Q31W
abundance fitness: -0.184
--
variantKey: D16N
abundance fitness: -0.034
--
variantKey: P24E
abundance fitness: -0.823
--
variantKey: K25C
abundance fitness: -0.111
--
variantKey: S2K
abundance fitness: 0.053
--
variantKey: E28R
abundance fitness: -0.25
--
variantKey: Q15G
abundance fitness: -0.102
--
variantKey: F18R
abundance fitness: -0.222
--
variantKey: P24I
abundance fitness: -0.292
--
variantKey: L36H
abundance fitness: -0.701
